# Tested on: AncSZ
# Protocol details: phosphorylation enrichment, bacterial display (enrichment ratio); higher = better substrate or ligand; peptides without Tyr show the background;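 further: 11-residue human phosphosite peptides and single-mutation variants displayed on the E. coli surface, counted by deep sequencing, each peptide's frequency after selection divided by its frequency in the unselected input library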;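 further: frequency after pTyr selection over input frequency; kinase dosed for 20-30% of maximal phosphorylation in three min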
Please note: True applies when phosphorylation enrichment is 1 or greater, and False applies otherwise.

Evaluate LSCLAYSGKDA [FXN_Y205_S202C] : phosphorylation enrichment at minimum 1?
True

Is it the case that PSQRRYVFFFS [PTEN_Y174_YF] has phosphorylation enrichment reaching or exceeding 1?
True

Determine whether measured phosphorylation enrichment meets or exceeds 1 for ARSHIYTFSSC [MEFV_Y741_A744S]
False

In plain terms: is recorded phosphorylation enrichment at least 1 for SFSGEYGGGGG [ZG16_Y30_YF] ?
False

Decide: phosphorylation enrichment of MAFDRYAAICS [OR8H2_Y123_H120Y_YF] >= 1?
True

hey, is phosphorylation enrichment for this one >= 1? DGTESYHTVSS [PLK1_Y462_L463H]
False

Given VEDHDYEGGIG [TKT_Y564_Y563D] , state whether its phosphorylation enrichment is at least 1.
True

phosphorylation enrichment >= 1 for GGYTCYSDGKK [PROS1_Y266_C267S] ?
True

# check: phosphorylation enrichment of EVVGRYSGHNA [MLH1_Y183_V185G] is greater than or equal to 1
False

Reported phosphorylation enrichment at or above 1? CTTIHYNFLCN [TP53_Y234_M237L_YF]
False

# bool: phosphorylation enrichment of GIYEDYVEGLR [MYL6_Y89_T85I] >= 1
True

Exam item: decide whether the reported phosphorylation enrichment for KSVVTYSPTTG [ITGB3BP_Y32_I30V] is at least 1.
False

Could you please find out whether CEHFSYYGMKA [SLC15A2_Y60_R57H] has phosphorylation enrichment that meets 1 or exceeds it?
True

----------
# Measured target: FGFR3 (UniProt P22607)
# Sequence (P22607 whole entry, looked up): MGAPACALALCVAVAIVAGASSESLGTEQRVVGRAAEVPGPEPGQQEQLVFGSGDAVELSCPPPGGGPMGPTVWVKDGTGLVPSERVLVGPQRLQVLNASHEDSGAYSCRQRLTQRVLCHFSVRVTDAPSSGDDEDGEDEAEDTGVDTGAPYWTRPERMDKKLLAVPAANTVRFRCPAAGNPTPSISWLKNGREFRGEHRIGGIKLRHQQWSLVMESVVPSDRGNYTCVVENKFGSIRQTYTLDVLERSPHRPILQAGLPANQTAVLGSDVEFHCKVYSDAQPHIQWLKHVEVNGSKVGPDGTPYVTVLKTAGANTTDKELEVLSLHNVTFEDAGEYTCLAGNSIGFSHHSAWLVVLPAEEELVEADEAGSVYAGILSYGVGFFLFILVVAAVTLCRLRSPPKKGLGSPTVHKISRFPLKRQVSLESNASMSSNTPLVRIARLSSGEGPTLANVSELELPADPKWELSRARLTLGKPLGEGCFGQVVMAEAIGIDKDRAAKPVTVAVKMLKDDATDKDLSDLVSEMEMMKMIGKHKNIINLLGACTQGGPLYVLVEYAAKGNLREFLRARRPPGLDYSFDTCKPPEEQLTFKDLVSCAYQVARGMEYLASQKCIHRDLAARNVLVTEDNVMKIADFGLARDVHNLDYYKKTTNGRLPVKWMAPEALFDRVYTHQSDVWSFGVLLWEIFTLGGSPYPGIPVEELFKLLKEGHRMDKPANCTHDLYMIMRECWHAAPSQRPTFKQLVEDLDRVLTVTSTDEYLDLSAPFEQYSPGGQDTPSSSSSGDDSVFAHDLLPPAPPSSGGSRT
# Protocol details: phosphorylation enrichment, bacterial display (enrichment ratio); higher = better substrate or ligand; peptides without Tyr show the background
Record form. Attribute: phosphorylation enrichment. Fill in for each entry.
# respond with the number and nothing more

Please give the measured phosphorylation enrichment for this sequence: SSVAGYACLAY [MVD_Y131_A128V]
0.701

# phosphorylation enrichment lookup, item KYACSYTPVKA [FLNB_Y708_T703K]
0.697

I am curious: what phosphorylation enrichment value has been reported for PIYEGYGLPHA [ACTA1_Y171_A172G] ?
0.945

Reported phosphorylation enrichment for VNNTVYGIDAM [EIF3J_Y143_A141T] : what is it?
0.461

Dear colleague, I am looking for the recorded phosphorylation enrichment of the following sequence: PSALGYSPSLH [LLGL2_Y40_R45H]
0.553

Could you share which phosphorylation enrichment value was measured for SGIYQYNIAKF [FOXL2_Y83_I84N] ?
0.605

phosphorylation enrichment lookup needed for IGEGTYGVVYK [CDK2_Y15] , thanks.
0.67

Which phosphorylation enrichment value belongs to ERDFTYDELLN [EIF2S2_Y176_E177D_YF] ?
0.815

For the sequence shown here, GRRNTYFASIA [ACADM_Y352_YF] , give the reported phosphorylation enrichment.
0.507

Any idea what phosphorylation enrichment was measured for IVRSLYEDLED [VHL_Y185] ?
0.73

Could you tell me which phosphorylation enrichment is on file for RPDSPYSRLHD [DOK2_Y271_P274L] ?
0.657

Which phosphorylation enrichment is listed for TPGPNYRPGYN [USH2A_Y463] ?
0.676

Need phosphorylation enrichment, item TKAEKYVNKAK [PLCG1_Y991]
0.523

Reported phosphorylation enrichment for SSSAIYDNPDL [DCP1B_Y191_N195D] : what is it?
0.651

----------
# Tested on: c-Abl (mouse)
# Protocol details: phosphorylation enrichment, bacterial display (enrichment ratio); higher = better substrate or ligand; peptides without Tyr show the background
Use phosphorylation enrichment to assign classes; range list: label 0 = under 0.5, label 1 = from 0.5 up to 0.8, label 2 = 0.8 and over

Band for the recorded phosphorylation enrichment of LLQEWYMIISR [HUWE1_Y4066_R4063Q] ?
label 2

For this sequence, which bin applies? ETGNLYIAKVE [CNTN4_Y180]
label 1

Each sequence maps to one class by phosphorylation enrichment. Which class for KSVVTYSPTTG [ITGB3BP_Y32_I30V] ?
label 1

Dear colleague, I would appreciate it if you could identify the bin for YSQNIYIQNRN [PKP2_Y631] and reply at your convenience.
label 1

Could you place PADQAYSWYQH [NDST1_Y711_R709Q] in its proper category? Many thanks.
label 1

Textbook exercise: identify the category of the sequence given here, RKLASYRSCLL [DHX37_Y1080] , according to its measured value.
label 1

Lab note: which band did LFEDRYLLGTS [ASS1_Y87_YF] land in?
label 0

Which category does the recorded phosphorylation enrichment put FCVVRYCWLRR [MPZ_Y181_Y177C] in?
label 1

// bin(item) where item = GGRKGYGDFSR [RECQL5_Y478]
label 2

Lab note: which band did PVGVLYKVKVY [PTS_Y128] land in?
label 2

State the class of the sequence shown: REGAKYVSHDA [ASS1_Y113_G117D]
label 1

Please report the category associated with FKGKKYKPLDL [RPL35_Y78_YF] , nothing else.
label 1

Which phosphorylation enrichment category applies to YETVKYFNNER [ABCB7_Y345] here?
label 1

Hi there! Could you help me figure out the category for GRLVEYDIDEV [SMS_Y134] please?
label 2

Please classify: LKETGYVVERP [BCLAF1_Y466]
label 0

Which class does RRGTRYMFSRP [RPL21_Y13] fall in?
label 2

# bin lookup: classify RVQKRYILDNV [RCN1_Y115_F117L] by its phosphorylation enrichment
label 0

In plain terms, what class is MVTSGYKAKMI [EFR3A_Y447_T451M] ?
label 1

Band for ATARPYSPYII [LRP5_Y1528_R1529S] ?
label 1

Where would QKNVSYVSTVS [TASOR_Y1043] land among the classes by reported phosphorylation enrichment?
label 0

Which of the defined bands does the recorded phosphorylation enrichment of GSRGKCSSGFR [ATM_Y332_Y332C] sit within?
label 1

Which class holds PGAPAYCVLME [MYO5A_Y1245_R1246C] ?
label 2

Categorize the following entry: EQKKFYNAVKK [SCN5A_Y1495_M1498V_YF]
label 1

// return the class label for NHYKIYNPCAE [PTEN_Y68_L70P]
label 1

----------
# Measured target: Fyn (UniProt P06241)
# Sequence (P06241 whole entry, looked up): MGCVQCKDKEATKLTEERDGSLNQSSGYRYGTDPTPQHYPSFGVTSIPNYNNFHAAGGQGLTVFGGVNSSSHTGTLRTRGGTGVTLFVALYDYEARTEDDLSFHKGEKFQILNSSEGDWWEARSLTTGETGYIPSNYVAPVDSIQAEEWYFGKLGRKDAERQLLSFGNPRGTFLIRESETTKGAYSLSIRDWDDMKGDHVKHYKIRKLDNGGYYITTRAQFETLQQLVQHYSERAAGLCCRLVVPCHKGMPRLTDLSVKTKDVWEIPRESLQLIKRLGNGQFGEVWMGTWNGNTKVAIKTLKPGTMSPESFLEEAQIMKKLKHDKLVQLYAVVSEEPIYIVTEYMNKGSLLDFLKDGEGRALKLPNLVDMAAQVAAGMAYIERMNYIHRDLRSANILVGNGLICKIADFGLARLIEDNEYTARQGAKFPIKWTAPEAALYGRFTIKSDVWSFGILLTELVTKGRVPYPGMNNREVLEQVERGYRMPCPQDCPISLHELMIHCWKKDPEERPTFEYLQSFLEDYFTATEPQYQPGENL
# Protocol details: phosphorylation enrichment, bacterial display (enrichment ratio); higher = better substrate or ligand; peptides without Tyr show the background
Would you kindly list phosphorylation enrichment for each of these sequences?
Form: value (number only, do not type unit).

Sample ELANLYHHVCM [BICD2_Y538] — what was its phosphorylation enrichment?
0.869

Reported phosphorylation enrichment, sequence LEQDEYALHSH [HADHB_Y244_R247H] : ____
0.887

Using the record for LKALHYMVQTS [SACS_Y3367] , report its phosphorylation enrichment.
0.362

Using the record for PSPTKYSLSPS [RANBP2_Y785_R784K] , report its phosphorylation enrichment.
0.318

Given the entry EQKKFYNAMKK [SCN5A_Y1495_YF] , report its measured phosphorylation enrichment.
0.325

For GRLVEYDIDEV [SMS_Y134] , what is its reported phosphorylation enrichment?
0.508

Which phosphorylation enrichment value is on record for PNQRRYVFFFS [PTEN_Y174_S170N_YF] ?
0.524

Would you kindly share the measured phosphorylation enrichment for GKSFIYAAFHA [KCNT1_Y563_T562I] ?
4.67

Field request: phosphorylation enrichment | item: TKAEKYVNKAK [PLCG1_Y991]
0.295

Reported phosphorylation enrichment, sequence SNKLTYGTMVF [ACOX1_Y275] : ____
5.28

Looking for the measured phosphorylation enrichment of NLVSEYQQFQD [TUBB3_Y422_D417N_YF] , can you help?
0.574

Query (sequence): SKNYTYIWWLN [PSG4_Y271] ; field requested: phosphorylation enrichment
0.343

What does the data say about its phosphorylation enrichment? Entry: DLAGRYYALRS [CKB_Y173_K177R]
0.484

Entry PNRILYGDFWQ [MYH6_Y717_R721W] has what phosphorylation enrichment?
5.79

----------
# Measured target: Jak2 (UniProt O60674)
# Sequence (O60674 whole entry, looked up): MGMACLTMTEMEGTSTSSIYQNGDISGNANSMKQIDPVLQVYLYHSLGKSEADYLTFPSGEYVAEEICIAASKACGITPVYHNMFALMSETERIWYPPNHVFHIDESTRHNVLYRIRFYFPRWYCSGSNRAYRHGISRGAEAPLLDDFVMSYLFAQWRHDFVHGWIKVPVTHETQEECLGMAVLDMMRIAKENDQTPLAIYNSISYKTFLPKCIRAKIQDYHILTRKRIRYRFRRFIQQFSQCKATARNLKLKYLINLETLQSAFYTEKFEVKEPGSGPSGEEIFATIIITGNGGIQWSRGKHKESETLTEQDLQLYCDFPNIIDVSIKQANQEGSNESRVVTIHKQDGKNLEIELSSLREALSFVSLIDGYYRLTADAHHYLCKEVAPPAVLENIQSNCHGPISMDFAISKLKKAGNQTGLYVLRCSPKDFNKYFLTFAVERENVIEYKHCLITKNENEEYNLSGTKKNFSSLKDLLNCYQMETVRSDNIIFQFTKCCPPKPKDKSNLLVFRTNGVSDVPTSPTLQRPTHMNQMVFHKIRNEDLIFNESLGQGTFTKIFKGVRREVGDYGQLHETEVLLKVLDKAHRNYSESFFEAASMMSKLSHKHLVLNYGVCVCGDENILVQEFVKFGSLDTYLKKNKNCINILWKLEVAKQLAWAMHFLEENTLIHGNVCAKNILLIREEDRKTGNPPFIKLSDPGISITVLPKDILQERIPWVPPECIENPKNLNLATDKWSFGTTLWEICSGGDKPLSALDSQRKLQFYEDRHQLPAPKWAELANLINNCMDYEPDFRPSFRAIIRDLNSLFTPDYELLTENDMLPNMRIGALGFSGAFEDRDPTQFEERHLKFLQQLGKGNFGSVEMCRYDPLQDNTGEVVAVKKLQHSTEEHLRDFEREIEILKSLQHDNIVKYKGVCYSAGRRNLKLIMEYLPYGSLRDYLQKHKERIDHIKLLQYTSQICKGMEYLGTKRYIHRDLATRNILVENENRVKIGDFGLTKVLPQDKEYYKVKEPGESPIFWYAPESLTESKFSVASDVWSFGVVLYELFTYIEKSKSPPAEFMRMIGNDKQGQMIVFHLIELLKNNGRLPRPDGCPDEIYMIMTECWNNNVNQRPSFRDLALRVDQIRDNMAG
# Protocol details: phosphorylation enrichment, bacterial display (enrichment ratio); higher = better substrate or ligand; peptides without Tyr show the background
Property label: phosphorylation enrichment
Response field accepts a number only; no unit should be typed.

Recorded phosphorylation enrichment for KVDKECEVRVR [GHR_Y226_Y226C] with Jak2 (UniProt O60674), please?
0.821

Reported phosphorylation enrichment for Jak2 (UniProt O60674), given WRRLIYRCQVG [NR2E3_Y81_R76W] ?
0.837

Lab request: please report phosphorylation enrichment under test system Jak2 (UniProt O60674) for ADKSVYLMGLN [MYH7_Y386_A385V]
0.51

# returns recorded phosphorylation enrichment (system: Jak2 (UniProt O60674)) for LIEQAYDNPHE [PRPF8_Y871]
0.811

For the record IFETDYFRKGG [INSR_Y1189_YF] , what value of phosphorylation enrichment is listed for Jak2 (UniProt O60674)?
0.934

Which phosphorylation enrichment is reported with Jak2 (UniProt O60674) for this entry: GEDPIYVTLEG [RTKtide_2018] ?
1.2

phosphorylation enrichment of LYNQDYPIHCV [GATM_Y227_S231C] on Jak2 (UniProt O60674)?
0.754

Requested read-out phosphorylation enrichment, target or system Jak2 (UniProt O60674), entry LPEENYQVLRF [ARHGAP1_Y365]
1.44

What reported phosphorylation enrichment corresponds to TCFDKYTGNTF [FN1_Y101_YF] on Jak2 (UniProt O60674)?
1.16

Request body: readout phosphorylation enrichment, system Jak2 (UniProt O60674), query NCLRVYVAGRF [CRB1_Y711_E710V] . Return the value.
1.08

Give phosphorylation enrichment (Jak2 (UniProt O60674)) of the following sequence: NKVFTYIFIME [SCN4A_Y1074_D1069N]
1.46

Give Jak2 (UniProt O60674) phosphorylation enrichment for RRIHCYRGHLW [VHL_Y112_S111C]
0.702

Query for Jak2 (UniProt O60674): what phosphorylation enrichment does the record show for IIGNGYFFHVF [MYBPC3_Y1135_R1138H_YF] ?
1.07

Return phosphorylation enrichment measured with Jak2 (UniProt O60674) given this sequence: LSVEIYDRREF [ITGB7_Y753_YF]
0.958

Short answer please: phosphorylation enrichment, Jak2 (UniProt O60674), entry GFEEAYSVSKK [PAFAH1B1_Y28_F31S_YF]
0.853

Requested read-out phosphorylation enrichment, target or system Jak2 (UniProt O60674), entry IKNPQYFSDAC [NTRK1_Y496_E492K]
0.634

Under Jak2 (UniProt O60674): phosphorylation enrichment value of KGSEGYLAAIF [NF1_Y2503_T2507I_YF] ?
0.815

Hi! What's the reported phosphorylation enrichment for KYACSYTPVKA [FLNB_Y708_T703K] on Jak2 (UniProt O60674)?
0.598

Give the reported phosphorylation enrichment for FSTPPYLLEAA [BRIP1_Y921_S919P_YF] (system: Jak2 (UniProt O60674)).
0.909

phosphorylation enrichment of GGGGGYNCSSG [FUS_Y232_R234C] on Jak2 (UniProt O60674)?
0.614

// lookup phosphorylation enrichment | system=Jak2 (UniProt O60674) | key= FGPPQYNIQFS [ERBB2IP_Y977_YF]
0.741

API: value(readout=phosphorylation enrichment, system=Jak2 (UniProt O60674)) for record TVLWLYTGTRP [UGT1A1_Y337_R336L]
1.06

Find phosphorylation enrichment (Jak2 (UniProt O60674)) for the entry RGRSTCYWPRP [GAGE12J_Y9_Y9C]
0.655

Return phosphorylation enrichment measured with Jak2 (UniProt O60674) given this sequence: YFRDGHMPRQY [GSS_Y270_Y270H]
1.03

Provide value of phosphorylation enrichment for this record tested with Jak2 (UniProt O60674): YGGRDYSLDEF [MYOF_Y1705]
0.945

Give recorded phosphorylation enrichment with Jak2 (UniProt O60674) for the following sequence: KMKGDYYRYLA [YWHAG_Y130]
2.55

What is its phosphorylation enrichment for Jak2 (UniProt O60674)? Entry: RPDSPYSRLHD [DOK2_Y271_P274L]
3.09

Query the reported phosphorylation enrichment for Jak2 (UniProt O60674); item: FLAVGDHKPHI [IDS_Y225_Y225D]
0.41

Where do these numbers come from? They come from the supplement of paper PMC10065799.
